TARGET_OR_SYSTEM: human Claudin 18.2 (hCLDN18.2) (human, UniProt P56856-2 1-261)
EXPERIMENT_DESCRIPTION: cell-based or functional assay
REPORTED_PROPERTY: CDC Maximum lysis (%)
Give just the number in %; leave the unit off.

I have this binder here, ch-48H1 (antibody, V domains shown, also called chimeric antibody of clone 48H1) VH: QVQLQQPGAELVKPGTSVKLSCKASGYIFTNYWTHWMKQRPGQGLEWIGMIHPNSGSSNYNEKFKSKATLTVDRSSSTVYMQLRRLTSEDSAVYYCTRIHYGNSMDYWGQGTSVTVSS VL: DIVMTQSPSSLTVTAGEKVTMSCKSSQSLFNSGNQKNYLTWYQQKPGQPPKLLIYWASTWESGVPDRFTGSGSGTDFTLTISSVQAEDLAVYYCQNAYSYPFTFGSGTKLEIK , and I need its recorded CDC Maximum lysis (%).
94.3
